Collected Mortality (Means ± standard error, %) values appear next to each entry.
test system: Dermatophagoides farinae; conditions: 0.2 mg/tube, 48 hr
REPORTED ENDPOINT: Mortality (Means ± standard error, %) (c %)

[
  {
    "QUERY SMILES": "OC/C=C/c1ccccc1",
    "TARGET OR TEST SYSTEM": "Dermatophagoides farinae",
    "RESULT UNIT": "c %",
    "VALUE REPORTED": 7.0
  },
  {
    "QUERY SMILES": "O=Cc1ccccc1O",
    "TARGET OR TEST SYSTEM": "Dermatophagoides farinae",
    "RESULT UNIT": "c %",
    "VALUE REPORTED": 28.0
  }
]

###

system: Dermatophagoides farinae; settings: 1 mg/tube, 48 hr
Collected Mortality (Means ± standard error, %) values appear next to each entry.

[
  {
    "COMPOUND": "CCCCN=C=S [butyl isothiocyanate]",
    "RESULT UNIT": "a %",
    "Mortality (Means ± standard error, %)": 100
  },
  {
    "COMPOUND": "O=Cc1ccccc1O",
    "RESULT UNIT": "a %",
    "Mortality (Means ± standard error, %)": 100
  },
  {
    "COMPOUND": "C=CCN=C=S [allyl isothiocyanate]",
    "RESULT UNIT": "a %",
    "Mortality (Means ± standard error, %)": 100
  },
  {
    "COMPOUND": "O=C/C=C/c1ccccc1 [trans-cinnamaldehyde]",
    "RESULT UNIT": "a %",
    "Mortality (Means ± standard error, %)": 100
  },
  {
    "COMPOUND": "OC/C=C/c1ccccc1",
    "RESULT UNIT": "a %",
    "Mortality (Means ± standard error, %)": 100
  }
]

###

Collected Mortality (Means ± standard error, %) values appear next to each entry.
system: Dermatophagoides farinae; conditions: 0.125 mg/tube, 24 hr
REPORTED ENDPOINT: Mortality (Means ± standard error, %) (d %)

[
  {
    "MOLECULE": "CCCCN=C=S [butyl isothiocyanate]",
    "RESULT UNIT": "d %",
    "VALUE REPORTED": 1.0
  },
  {
    "MOLECULE": "O=C/C=C/c1ccccc1 [trans-cinnamaldehyde]",
    "RESULT UNIT": "d %",
    "VALUE REPORTED": 18.0
  },
  {
    "MOLECULE": "OC/C=C/c1ccccc1",
    "RESULT UNIT": "d %",
    "VALUE REPORTED": 1.0
  }
]

###

Collected Mortality (Means ± standard error, %) values appear next to each entry.
test system: Dermatophagoides pteronyssinus; settings: 0.125 mg/tube, 48 hr

[
  {
    "MOLECULE": "O=C/C=C/c1ccccc1 [trans-cinnamaldehyde]",
    "RESULT UNIT": "c %",
    "Mortality (Means ± standard error, %)": 9.0
  },
  {
    "MOLECULE": "C=CCN=C=S [allyl isothiocyanate]",
    "RESULT UNIT": "c %",
    "Mortality (Means ± standard error, %)": 9.0
  }
]

###

tested on: Dermatophagoides farinae; conditions: 1 mg/tube, 24 hr

[
  {
    "MOLECULE": "CCCCN=C=S [butyl isothiocyanate]",
    "Mortality (Means ± standard error, %) / a %": 99.0
  },
  {
    "MOLECULE": "C=CCN=C=S [allyl isothiocyanate]",
    "Mortality (Means ± standard error, %) / a %": 100
  },
  {
    "MOLECULE": "OC/C=C/c1ccccc1",
    "Mortality (Means ± standard error, %) / a %": 99.0
  },
  {
    "MOLECULE": "O=Cc1ccccc1O",
    "Mortality (Means ± standard error, %) / a %": 100
  }
]

###

Collected Mortality (Means ± standard error, %) values appear next to each entry.
system: Dermatophagoides pteronyssinus; settings: 0.5 mg/tube, 24 hr

[
  {
    "COMPOUND": "C=CCN=C=S [allyl isothiocyanate]",
    "Mortality (Means ± standard error, %)": "92.0 ± 2.6 a %"
  },
  {
    "COMPOUND": "CCCCN=C=S [butyl isothiocyanate]",
    "Mortality (Means ± standard error, %)": "92.0 ± 2.6 a %"
  },
  {
    "COMPOUND": "OC/C=C/c1ccccc1",
    "Mortality (Means ± standard error, %)": "90.0%"
  },
  {
    "COMPOUND": "O=Cc1ccccc1O",
    "Mortality (Means ± standard error, %)": "89.0%"
  },
  {
    "COMPOUND": "O=C/C=C/c1ccccc1 [trans-cinnamaldehyde]",
    "Mortality (Means ± standard error, %)": "84.0%"
  }
]

###

Collected Mortality (Means ± standard error, %) values appear next to each entry.
system: Dermatophagoides pteronyssinus; settings: 1 mg/tube, 24 hr

[
  {
    "MOLECULE": "CCCCN=C=S [butyl isothiocyanate]",
    "Mortality (Means ± standard error, %)": "99.0 a^c %"
  },
  {
    "MOLECULE": "C=CCN=C=S [allyl isothiocyanate]",
    "Mortality (Means ± standard error, %)": "100 a %"
  },
  {
    "MOLECULE": "OC/C=C/c1ccccc1",
    "Mortality (Means ± standard error, %)": "99.0 ± 1.0a %"
  },
  {
    "MOLECULE": "O=C/C=C/c1ccccc1 [trans-cinnamaldehyde]",
    "Mortality (Means ± standard error, %)": "100a %"
  },
  {
    "MOLECULE": "O=Cc1ccccc1O",
    "Mortality (Means ± standard error, %)": "100a %"
  }
]

###

test system: Dermatophagoides pteronyssinus; settings: 0.2 mg/tube, 48 hr

[
  {
    "MOLECULE": "OC/C=C/c1ccccc1 [cinnamyl alcohol]",
    "Mortality (Means ± standard error, %), c %": 10.0
  },
  {
    "MOLECULE": "O=C/C=C/c1ccccc1 [trans-cinnamaldehyde]",
    "Mortality (Means ± standard error, %), c %": 9.0
  },
  {
    "MOLECULE": "C=CCN=C=S [allyl isothiocyanate]",
    "Mortality (Means ± standard error, %), c %": 9.0
  }
]

###

Collected Mortality (Means ± standard error, %) values appear next to each entry.
system: Dermatophagoides farinae; details: 0.125 mg/tube, 48 hr

[
  {
    "COMPOUND": "O=Cc1ccccc1O",
    "RESULT UNIT": "c %",
    "Mortality (Means ± standard error, %)": 27.0
  },
  {
    "COMPOUND": "OC/C=C/c1ccccc1",
    "RESULT UNIT": "c %",
    "Mortality (Means ± standard error, %)": 2.0
  },
  {
    "COMPOUND": "O=C/C=C/c1ccccc1 [trans-cinnamaldehyde]",
    "RESULT UNIT": "c %",
    "Mortality (Means ± standard error, %)": 23.0
  }
]

###

tested on: Dermatophagoides farinae; conditions: 0.3 mg/tube, 48 hr

[
  {
    "COMPOUND": "O=C/C=C/c1ccccc1 [trans-cinnamaldehyde]",
    "TARGET OR TEST SYSTEM": "Dermatophagoides farinae",
    "Mortality (Means ± standard error, %)": "39.0 ± 2.5bc %"
  },
  {
    "COMPOUND": "O=Cc1ccccc1O",
    "TARGET OR TEST SYSTEM": "Dermatophagoides farinae",
    "Mortality (Means ± standard error, %)": "37.0 ± 1.9bc %"
  },
  {
    "COMPOUND": "OC/C=C/c1ccccc1",
    "TARGET OR TEST SYSTEM": "Dermatophagoides farinae",
    "Mortality (Means ± standard error, %)": "45.0 ± 1.9b %"
  },
  {
    "COMPOUND": "CCCCN=C=S [butyl isothiocyanate]",
    "TARGET OR TEST SYSTEM": "Dermatophagoides farinae",
    "Mortality (Means ± standard error, %)": "34.0%"
  },
  {
    "COMPOUND": "C=CCN=C=S [allyl isothiocyanate]",
    "TARGET OR TEST SYSTEM": "Dermatophagoides farinae",
    "Mortality (Means ± standard error, %)": "27.0%"
  }
]

###

tested on: Dermatophagoides farinae; settings: 0.5 mg/tube, 48 hr
Collected Mortality (Means ± standard error, %) values appear next to each entry.

[
  {
    "COMPOUND": "OC/C=C/c1ccccc1",
    "RESULT UNIT": "a %",
    "Mortality (Means ± standard error, %)": 97.0
  },
  {
    "COMPOUND": "O=C/C=C/c1ccccc1 [trans-cinnamaldehyde]",
    "RESULT UNIT": "a %",
    "Mortality (Means ± standard error, %)": 96.0
  },
  {
    "COMPOUND": "O=Cc1ccccc1O",
    "RESULT UNIT": "a %",
    "Mortality (Means ± standard error, %)": 100
  }
]
